Data provenance is patent US10562910B2.

Assay: Pharmacokinetics test in SD rats
Type: in vivo
Settings: rat, plasma; male SD rats, iv 1 mg/kg
ASSAY ENDPOINT: MRT inf

Please go through the list and note MRT inf for each compound.
1. O=C(O)c1ccc2c(c1)Oc1ccc(OCc3c(-c4c(Cl)cccc4Cl)noc3C3CC3)nc1C=C2F
2. O=C(O)c1ccc2c(c1)Oc1ccc(OCc3c(-c4c(Cl)cccc4Cl)noc3C3CC3)nc1C(F)=C2
3. O=C(O)c1ccc2c(c1)Oc1ccc(OCc3c(-c4c(Cl)cccc4Cl)noc3C3CC3)nc1CO2

1. 47.5 min
2. 32.9 min
3. 32.9 min

Value of measured MRT inf for the entry O=C(O)c1ccc2c(c1)Oc1ccc(OCc3c(-c4c(Cl)cccc4Cl)noc3C3CC3)nc1C(F)(F)C2 : 25.7 min

----------
Assay: Pharmacokinetics test in SD rats
Assay type: in vivo
Settings: rat, plasma; male SD rats, iv 1 mg/kg
For each record, write down the corresponding clearance.
Give bare numbers, in mL/min/kg.

| LINE NOTATION | UNIT ABBREVIATION | VALUE MEASURED |
| --- | --- | --- |
| O=C(O)c1ccc2c(c1)Oc1ccc(OCc3c(-c4c(Cl)cccc4Cl)noc3C3CC3)nc1C(F)=C2 | mL/min/kg | 10.6 |
| O=C(O)c1ccc2c(c1)Oc1ccc(OCc3c(-c4c(Cl)cccc4Cl)noc3C3CC3)nc1C=C2F | mL/min/kg | 11.2 |
| O=C(O)c1ccc2c(c1)Oc1ccc(OCc3c(-c4c(Cl)cccc4Cl)noc3C3CC3)nc1C(F)(F)C2 | mL/min/kg | 12.6 |

Shifting focus to the compound that follows.
Value of measured clearance for the entry O=C(O)c1ccc2c(c1)Oc1ccc(OCc3c(-c4c(Cl)cccc4Cl)noc3C3CC3)nc1CO2 : 14.8

----------
Experiment: Pharmacokinetics test in SD rats
Type: in vivo
Conditions: rat, plasma; male SD rats, iv 1 mg/kg; read-out: Vss
For each record, write down the corresponding Vd.
One number for each entry, in L/kg.

| COMPOUND | UNIT ABBREVIATION | Vd |
| --- | --- | --- |
| O=C(O)c1ccc2c(c1)Oc1ccc(OCc3c(-c4c(Cl)cccc4Cl)noc3C3CC3)nc1C(F)=C2 [Example 5] | L/kg | 0.344 |
| O=C(O)c1ccc2c(c1)Oc1ccc(OCc3c(-c4c(Cl)cccc4Cl)noc3C3CC3)nc1CO2 [Example 2] | L/kg | 0.479 |
| O=C(O)c1ccc2c(c1)Oc1ccc(OCc3c(-c4c(Cl)cccc4Cl)noc3C3CC3)nc1C(F)(F)C2 [Example 10] | L/kg | 0.322 |

Shifting focus to the compound that follows.
Value of measured Vd for the entry O=C(O)c1ccc2c(c1)Oc1ccc(OCc3c(-c4c(Cl)cccc4Cl)noc3C3CC3)nc1C=C2F [Example 1] : 0.522

----------
Assay: Pharmacokinetics test in SD rats
Type: in vivo
Conditions: rat, plasma; male SD rats, po 5 mg/kg
ASSAY ENDPOINT: MRT inf (h)
Numbers only, in h.

Consider the reported MRT inf for these compounds:
| LINE NOTATION | VALUE MEASURED |
| --- | --- |
| O=C(O)c1ccc2c(c1)Oc1ccc(OCc3c(-c4c(Cl)cccc4Cl)noc3C3CC3)nc1C=C2F | 1.32 |
| O=C(O)c1ccc2c(c1)Oc1ccc(OCc3c(-c4c(Cl)cccc4Cl)noc3C3CC3)nc1C(F)(F)C2 | 1.38 |
| O=C(O)c1ccc2c(c1)Oc1ccc(OCc3c(-c4c(Cl)cccc4Cl)noc3C3CC3)nc1C(F)=C2 | 1.07 |

Shifting focus to the compound that follows.
Value of measured MRT inf for the entry O=C(O)c1ccc2c(c1)Oc1ccc(OCc3c(-c4c(Cl)cccc4Cl)noc3C3CC3)nc1CO2 : 0.931

----------
Assay: Pharmacokinetics test in SD rats
Assay type: in vivo
Conditions: rat, plasma; male SD rats, iv 1 mg/kg
For each record, write down the corresponding Cmax.

Consider the reported Cmax for these compounds:
| LINE NOTATION | Cmax |
| --- | --- |
| O=C(O)c1ccc2c(c1)Oc1ccc(OCc3c(-c4c(Cl)cccc4Cl)noc3C3CC3)nc1CO2 | 2060 ng/mL |
| O=C(O)c1ccc2c(c1)Oc1ccc(OCc3c(-c4c(Cl)cccc4Cl)noc3C3CC3)nc1C(F)(F)C2 | 3020 ng/mL |
| O=C(O)c1ccc2c(c1)Oc1ccc(OCc3c(-c4c(Cl)cccc4Cl)noc3C3CC3)nc1C(F)=C2 | 3040 ng/mL |

Value of measured Cmax for the entry O=C(O)c1ccc2c(c1)Oc1ccc(OCc3c(-c4c(Cl)cccc4Cl)noc3C3CC3)nc1C=C2F : 1890 ng/mL

----------
Target: FXR-LBD (Homo sapiens (Human))
Sequence (Q96RI1 262-486): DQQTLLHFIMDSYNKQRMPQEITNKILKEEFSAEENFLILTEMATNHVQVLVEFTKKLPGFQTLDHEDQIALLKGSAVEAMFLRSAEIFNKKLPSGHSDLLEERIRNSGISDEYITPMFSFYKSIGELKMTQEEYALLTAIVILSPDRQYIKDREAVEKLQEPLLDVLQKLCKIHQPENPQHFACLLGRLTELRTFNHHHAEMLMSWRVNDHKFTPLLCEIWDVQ
Assay: TR-FRET Farnesoid X Receptor Coactivator Assay
Settings: TR-FRET farnesoid X receptor protein coactivator activity
ASSAY ENDPOINT: EC50 (nM)
Answers are plain numbers, in nM.

Consider the reported EC50 for these compounds:
| COMPOUND | EC50 / nM |
| --- | --- |
| O=C(O)c1cc(F)c2c(c1)Oc1ccc(OCc3c(-c4c(Cl)cccc4Cl)noc3C3CC3)nc1CC2 | 60.4 |
| O=C(O)c1cc2c(cc1O)CCc1nc(OCc3c(-c4c(Cl)cccc4Cl)noc3C3CC3)ccc1O2 | 17 |
| O=C(O)c1cc2c(cc1F)CCc1nc(OCc3c(-c4c(Cl)cccc4Cl)noc3C3CC3)ccc1O2 | 31 |

Please go through the list and note EC50 for each compound.
1. O=C(O)c1ccc2c(c1)Oc1ccc(OCc3c(-c4c(Cl)cccc4Cl)noc3C3CC3)nc1C1CC21 (stereo not drawn)
2. O=C(O)c1ccc2c(c1)Oc1ccc(OCc3c(-c4c(Cl)cccc4Cl)noc3C3CC3)nc1C=C2F
3. O=C(O)c1ccc2c(c1)Oc1ccc(OCc3c(-c4c(Cl)cccc4Cl)noc3C3CC3)nc1CO2

[76.1, 49.3, 5.1]

----------
Target: FXR ligand binding domain (LBD) (Homo sapiens (Human))
Sequence (Q96RI1 261-481): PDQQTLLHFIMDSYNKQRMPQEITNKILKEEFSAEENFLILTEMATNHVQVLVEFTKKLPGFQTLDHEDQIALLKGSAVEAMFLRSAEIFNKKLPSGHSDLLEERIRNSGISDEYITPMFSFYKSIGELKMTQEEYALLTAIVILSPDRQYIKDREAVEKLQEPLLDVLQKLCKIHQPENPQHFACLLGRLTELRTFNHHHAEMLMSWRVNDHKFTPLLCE
Assay: Mammalian one hybrid (M1H) GAL4 reporter gene assay in HEK293 cells
Conditions: GAL4 reporter gene test
Method: Mammalian one hybrid technology is also called chimeric receptor gene assay. Based on the GAL4 chimera receptor assay, the activity of compounds which mediated activation of FXR was detected by dual luciferase reporter assay. […] The % Activation value was calculated by the following equation: Activation %=[(X−Min)/(Max−Min)]×100%. […] Finally, the EC50 value of each compounds were calculated by GraphPrism 5.0.
Lab note: anything with EC50 below 60 nM is marked true (1); values at 60 nM or higher are marked false (0).

As a guide, the following entries are already answered.
| COMPOUND | CLASS ASSIGNMENT |
| --- | --- |
| O=C(O)c1ccc2c(c1)Oc1ccc(OCc3c(-c4c(Cl)cccc4Cl)noc3C3CC3)nc1C1(CC1)C2 [Example 9] | true (1) |
| O=C(O)c1ccc2c(c1)Oc1ccc(OCc3c(-c4c(Cl)cccc4Cl)noc3C3CC3)nc1C(F)(F)C2 [Example 10] | true (1) |
| O=C(O)c1ccc2c(c1)Oc1ccc(OCc3c(-c4c(Cl)cccc4Cl)noc3C3CC3)nc1C(F)(F)C2O (stereo not shown) [Example 12] | false (0) |

Dear reviewer, please state whether CC1=Cc2ccc(C(=O)O)cc2Oc2ccc(OCc3c(C4CC4)cnn3-c3c(Cl)cccc3Cl)nc21 [Example 15] has EC50 strictly beneath 60 nM. true (1)

Dear reviewer, please state whether O=C(O)c1ccc2c(c1)Oc1ccc(OCc3c(-c4c(Cl)cccc4Cl)noc3C3CC3)nc1C(C(F)(F)F)=C2 [Example 7] has EC50 strictly beneath 60 nM. true (1)

Dear reviewer, please state whether O=C(O)c1cc2c(cc1O)CCc1nc(OCc3c(-c4c(Cl)cccc4Cl)noc3C3CC3)ccc1O2 [Example 11] has EC50 strictly beneath 60 nM. false (0)

----------
Assay: Pharmacokinetics test in SD rats
Format: in vivo
Details: rat, plasma; male SD rats, po 5 mg/kg
ASSAY ENDPOINT: Cmax (ng/mL)
Answers are plain numbers, in ng/mL.

| LINE NOTATION | VALUE MEASURED |
| --- | --- |
| O=C(O)c1ccc2c(c1)Oc1ccc(OCc3c(-c4c(Cl)cccc4Cl)noc3C3CC3)nc1C=C2F | 2760 |

Please go through the list and note Cmax for each compound.
1. O=C(O)c1ccc2c(c1)Oc1ccc(OCc3c(-c4c(Cl)cccc4Cl)noc3C3CC3)nc1CO2
2. O=C(O)c1ccc2c(c1)Oc1ccc(OCc3c(-c4c(Cl)cccc4Cl)noc3C3CC3)nc1C(F)(F)C2
3. O=C(O)c1ccc2c(c1)Oc1ccc(OCc3c(-c4c(Cl)cccc4Cl)noc3C3CC3)nc1C(F)=C2

1: 3640; 2: 3760; 3: 6430

----------
For each record, write down the corresponding bioavailability.
Assay: Pharmacokinetics test in SD rats
Format: in vivo
Details: rat, plasma; male SD rats, po 5 mg/kg vs iv 1 mg/kg

| COMPOUND | bioavailability |
| --- | --- |
| O=C(O)c1ccc2c(c1)Oc1ccc(OCc3c(-c4c(Cl)cccc4Cl)noc3C3CC3)nc1CO2 [Example 2] | 72% |
| O=C(O)c1ccc2c(c1)Oc1ccc(OCc3c(-c4c(Cl)cccc4Cl)noc3C3CC3)nc1C(F)=C2 [Example 5] | 95% |
| O=C(O)c1ccc2c(c1)Oc1ccc(OCc3c(-c4c(Cl)cccc4Cl)noc3C3CC3)nc1C=C2F [Example 1] | 55% |

Shifting focus to the compound that follows.
Value of measured bioavailability for the entry O=C(O)c1ccc2c(c1)Oc1ccc(OCc3c(-c4c(Cl)cccc4Cl)noc3C3CC3)nc1C(F)(F)C2 [Example 10] : 88%
